# Target or system: IMP-1 (Serratia marcescens)
# Sequence (P52699 whole entry, looked up): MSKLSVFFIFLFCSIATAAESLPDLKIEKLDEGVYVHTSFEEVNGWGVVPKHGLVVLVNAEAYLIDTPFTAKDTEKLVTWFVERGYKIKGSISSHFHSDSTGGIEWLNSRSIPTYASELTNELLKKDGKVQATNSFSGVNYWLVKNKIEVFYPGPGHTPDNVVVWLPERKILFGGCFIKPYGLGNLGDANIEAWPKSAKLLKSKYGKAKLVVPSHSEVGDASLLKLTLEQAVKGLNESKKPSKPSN
# Test details: biochemical
# Assay type: biochemical
# Condition: IMP-1 enzyme, CCF2-FA substrate; read-out: IMP-1 IC50
Observed property: IC50 (µM)
Kindly answer with a numeric value in µM, unit omitted.

Known IC50 results, listed for orientation:
[[record]]
molecule_smiles = "NC1(c2ccc(-c3ccc(C(F)(F)F)c(S(N)(=O)=O)c3-c3nnn[nH]3)cc2)CCCC1"
target_or_system = "IMP-1 (Serratia marcescens)"
observed_property = "IC50"
measure_unit = "µM"
numeric_readout = 0.00697

[[record]]
molecule_smiles = "NS(=O)(=O)c1c(C(F)(F)F)ccc(-c2snc3ncccc23)c1-c1nnn[nH]1"
target_or_system = "IMP-1 (Serratia marcescens)"
observed_property = "IC50"
measure_unit = "µM"
numeric_readout = 0.0164


Now look at this entry.
Just so you know, measured IC50 for "Nc1nc2cncc(-c3ccc(C(F)(F)F)c(S(N)(=O)=O)c3-c3nnn[nH]3)c2[nH]1" came out at 0.0149

Each recorded value in this set is attributed to patent US9708336B2.
